# Test system: RARg homodimer (NR concentration 270 nM)
# experiment_description: PBM binding z-score (relative to random genomic background probes); higher = stronger binding; sequences stand for … in GC…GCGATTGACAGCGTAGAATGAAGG
Catalogue of PBM binding z-score readings, one per entry.
# print the numeric value only

Example entries begin here.
# sequence_record, PBM binding z-score
records = [
    ("TCGGGTAGGTTAGGGGCATTCAGAATGGCGTCGA", 1),
    ("CCGACTGGGGCAAGGTTACCATAACGCACAGCCA", 1.39),
    ("ATCTCTAGGTAACAAGTACAGTGAAAGAGAGGAC", 0.824),
    ("ACAGACAGGTGAGTGAAGGTAGCTCAGCTGGACG", 0.0793),
    ("CCGACTGGGGCAAGGTAACCATAACGCACAGCCA", 0.527),
    ("CCGACTGGCGCAAGGTTACCATAACGCACAGCCA", 0.602),
]

Problem: Fill in the blank: the reported PBM binding z-score of TCTATTAGTTTAAGGGCAACCGACGAGTCCGTTT is ____.
Result: 1.17

Problem: Fill in the blank: the reported PBM binding z-score of TCTTGTAGATCAAACGTTAAGAAAGCCGAAGCCT is ____.
Result: -0.238

Problem: Fill in the blank: the reported PBM binding z-score of TAGCCTGGGTCATTCAGGGGCCAGTATAGAAAGC is ____.
Result: 3.76

Problem: Fill in the blank: the reported PBM binding z-score of CGTCAAAGTTCAAGGTAACCTAACAGAAAGCAGC is ____.
Result: 6.2

Problem: Fill in the blank: the reported PBM binding z-score of TCATATAGATAATACAGGTGAAAGTCGGCATCTA is ____.
Result: 0.632

Problem: Fill in the blank: the reported PBM binding z-score of TCTTGTAGATCAATGGAGGTTAAGAAAGTGCGCT is ____.
Result: 0.147

Problem: Fill in the blank: the reported PBM binding z-score of CGAACGAGGGCATGAGTTGATAGAAAATGCCGAT is ____.
Result: 1.56

Problem: Fill in the blank: the reported PBM binding z-score of TTACCACGGTGAGCTGAGGTCGTTGATCCAACTC is ____.
Result: -0.116
